Each recorded value in this set is attributed to PubChem BioAssay AID1159580.

// reported normalized growth per item
assay: chemical genetic growth profiling, strain panel (AID 1159580);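 further: tested at 20 µM; growth read once vehicle control cultures reached saturation at 30 °C; 1 = growth at the plate median or of vehicle wells; lower values mean less growth of the strain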; conditions: S. cerevisiae deletion strains, growth OD, locus YPL055C, strain LGE1, hits give low values
Hit rate of the full screen: of about 5,500 compounds, about 2,000 (36%) were called active. About 18% were inconclusive and are not listed. Some of the results follow.
// response body must contain only the number

Here are 2 compounds together with their reported answers.
[[record]]
compound = "COC(=O)c1c(C)cc(OC(=O)c2c(C)c(Cl)c(O)c(C=O)c2O)c(C)c1O"
property_name = "normalized growth"
experimental_value = 0.984

[[record]]
compound = "C[C@H](N)[C@H](O)c1ccccc1"
property_name = "normalized growth"
experimental_value = 1.01


Then there is this compound:
Ask | Please look at this compound and report its normalized growth: CC[C@H](CCC(C)[C@H]1CCC2C3CCC4C[C@@H](O)CC[C@]4(C)C3CC[C@@]21C)C(C)C (stereo partly drawn)
Reply | 1

* * *

test: chemical genetic growth profiling, strain panel (AID 1159580); settings: S. cerevisiae deletion strains, growth OD, locus YDL185W, strain tfp1, hits give low values
The campaign covered roughly 5,500 compounds. About 2,000 (36%) were called active. About 18% were inconclusive and are not listed. This is one part of the list.
Listing of entries alongside the reported normalized growth.
Lab note: jot down the number only; don't add units.

Ask | Consider the compound "CC(=O)Nc1nnc(S(N)(=O)=O)s1" . State its measured normalized growth.
Reply | 0.998

Ask | Report normalized growth, nothing else, for this compound: "COc1cc(OC)c2c3c1C(=O)c1c(OC)cc(C)c4c(OC)cc(c-3c14)C(C)(C)C2=O"
Reply | 0.991

Ask | State, in one line, measured normalized growth of Cc1cc(C)cc(OCC2CNC(=O)O2)c1 (centres undefined)
Reply | 1.02

Ask | Return normalized growth (reported value) for this compound: "O=c1cc(-c2ccccc2)oc2c(O)c(O)ccc12"
Reply | 0.972

Ask | Return normalized growth (reported value) for this compound: C[C@H](CCC(=O)O)[C@H]1CCC2C3C(CC[C@@]21C)[C@@]1(C)CC[C@@H](O)C[C@H]1C[C@@H]3O (some centres undefined)
Reply | 0.972

* * *

experiment: chemical genetic growth profiling, strain panel (AID 1159580);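 further: tested at 20 µM; growth read once vehicle control cultures reached saturation at 30 °C; 1 = growth at the plate median or of vehicle wells; lower values mean less growth of the strain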; conditions: S. cerevisiae deletion strains, growth OD, locus YDR335W, strain msn5, hits give low values
Screen size: about 5,500 compounds; about 2,000 (36%) were called active. Another 18% or so got no clear call; they are omitted. The list shows a part of the results.
Could you please mark condition met for values of normalized growth below 1 and condition not met for values at or above it?

Consider the worked cases shown below.
[[record]]
compound = "NC(=O)c1ncn(C2O[C@H](CO)[C@@H](O)[C@H]2O)c1N (stereo not given in full)"
label_class = "condition not met"

[[record]]
compound = "Nc1cc(-c2ccncc2)c[nH]c1=O"
label_class = "condition met"


Field: next compound
Ask | API: query returns whether the compound falls strictly under 1 in normalized growth. Query: "O=C(O)CCCOc1ccc(Cl)cc1Cl"
Reply | condition met

* * *

Catalogue of normalized growth readings, one per entry.
assay: chemical genetic growth profiling, strain panel (AID 1159580);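 further: tested at 20 µM; growth read once vehicle control cultures reached saturation at 30 °C; 1 = growth at the plate median or of vehicle wells; lower values mean less growth of the strain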; details: S. cerevisiae deletion strains, growth OD, locus YCL061C, strain MRC1, hits give low values
The campaign covered roughly 5,500 compounds. About 2,000 (36%) were called active. About 18% were inconclusive and are not listed. The list shows a part of the results.
Just the number, please, no unit after it.

Example results:
[[record]]
compound = "CCN(CC)C(C)CN1c2ccccc2Sc2ccccc21 (stereo not drawn)"
property_name = "normalized growth"
experimental_value = 0.932

[[record]]
compound = "Cc1cc(=O)oc2c(O)c(O)ccc12"
property_name = "normalized growth"
experimental_value = 0.992

[[record]]
compound = "C=C1C2=CC(=O)O[C@@H](c3ccoc3)[C@]2(C)CCC1[C@@]1(C)C=CC(=O)C(C)(C)[C@@H]1CC(=O)OC (stereo partly drawn)"
property_name = "normalized growth"
experimental_value = 1.01


Ask | Please report normalized growth for the following compound: "NNCCc1ccccc1"
Reply | 1.01

Ask | # return recorded normalized growth for input "O=C(O)CCOc1ccc(Cl)cc1"
Reply | 0.825

Ask | Specify measured normalized growth for C=C1C2CC[C@@]3(C)[C@H](c4ccoc4)OC(=O)C[C@]13O[C@H]1CC(=O)C(C)(C)C(CC(=O)OC)[C@@]21C (stereo partly drawn) .
Reply | 0.987

Ask | Given the compound CC(CCC(=O)O)[C@H]1CCC2C3CC[C@@H]4CCCC[C@]4(C)C3CC[C@@]21C (stereo partly drawn) , write its reported normalized growth.
Reply | 1.02

Ask | Determine from records and report normalized growth for C=Cc1c(C)c2[n-]c1=Cc1[n-]c(c(CC)c1C)C=c1[n-]c3c(c1C)C(=O)C(C(=O)[O-])C=3c1[n-]c(c(C)c1CCC(=O)[O-])C=2.[Cu] (stereo not drawn)
Reply | 1.03

Ask | Answer with reported normalized growth of "COc1cc(OC)c(OC)cc1C=O"
Reply | 0.996

Ask | Answer with the recorded normalized growth of "O=c1cc(-c2ccc(O)cc2)oc2cc(O)cc(O)c12" only.
Reply | 1.01

Ask | Give the value of normalized growth reported for the following: "Cc1cc2c(C(C)C)c(O)c(O)c(C=O)c2c(O)c1-c1c(C)cc2c(C(C)C)c(O)c(O)c(C=O)c2c1O"
Reply | 0.845

Ask | Given the compound "FC(F)(F)c1cc(-n2c(CCc3nc(-c4ccc(Cl)cc4)no3)n[nH]c2=S)cc(C(F)(F)F)c1" , write its reported normalized growth.
Reply | 0.985

Ask | For the compound "Cc1ccc2cc(NC(=O)c3ccco3)ccc2n1" , give its measured normalized growth value.
Reply | 0.991

Ask | Give normalized growth for the following compound: O=C(O)CC(CC(=O)Nc1ccc(I)cc1F)c1ccc(C(F)(F)F)cc1 (stereo not drawn)
Reply | 0.978

Ask | State its normalized growth for this compound: CC(C)CCCC(C)C1CCC2C3CC[C@H]4CCCC[C@]4(C)C3CC[C@]12C (stereo partly drawn)
Reply | 1.02

Ask | Retrieve normalized growth measured for "N#Cc1csc([N+](=O)[O-])c1" and print it.
Reply | 0.937

Ask | Provide one value: measured normalized growth of CC1(C)C(O)CC(O)C2(C)C1CC(O)C1(C)C2CCC2(C)C(c3ccoc3)OC(=O)C3OC321 (stereo not drawn)
Reply | 1.01

Ask | Assign normalized growth to the following record: "COc1ccc(C(=O)N2CCCC2=O)cc1"
Reply | 0.974

Ask | Provide normalized growth value for the following compound: "CC(=O)Nc1ccc(S(=O)(=O)Nc2ncccn2)cc1"
Reply | 1.02

Ask | Write down normalized growth measured for item "O=C(O)c1ccccc1C(=O)Nc1ccc(S(=O)(=O)Nc2nccs2)cc1"
Reply | 0.971

Ask | Give reported normalized growth value for "CNC(=O)Oc1ccc2c(c1)[C@]1(C)CCN(C)[C@@H]1N2C"
Reply | 1.01

Ask | Recall and state the measured normalized growth for CN(C)CCOC(=O)C(c1ccccc1)C1(O)CCCC1 (stereo not drawn) .
Reply | 0.993

Ask | Answer with the recorded normalized growth of CC(CN(C)C)CN1c2ccccc2CCc2ccccc21 (stereo not drawn) only.
Reply | 0.986

* * *

assay: chemical genetic growth profiling, strain panel (AID 1159580);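 further: tested at 20 µM; growth read once vehicle control cultures reached saturation at 30 °C; 1 = growth at the plate median or of vehicle wells; lower values mean less growth of the strain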; conditions: S. cerevisiae deletion strains, growth OD, locus YDR137W, strain rgp1, hits give low values
In all, about 5,500 compounds went through this assay and about 2,000 (36%) were called active. About 18% were inconclusive and are not listed. The list shows a part of the results.
// reported normalized growth for each item listed
Number only, no unit.

Answered cases to consult:
[[record]]
compound = "CNC(=O)Oc1ccc2c(c1)[C@]1(C)CCN(C)[C@@H]1N2C"
property_name = "normalized growth"
experimental_value = 1.05

[[record]]
compound = "CC(CCC(=O)O)[C@H]1CCC2C3CC[C@@H]4C[C@H](O)CC[C@]4(C)C3C[C@H](O)[C@@]21C (stereo partly drawn)"
property_name = "normalized growth"
experimental_value = 0.894

[[record]]
compound = "CCCC(CCC)C(=O)O"
property_name = "normalized growth"
experimental_value = 0.985


Ask | Provide measured normalized growth value, entry: "c1ccc2c(c1)CN1CCCC1=N2"
Reply | 1.01

Ask | State its normalized growth: "COc1cc([C@H]2Oc3cc([C@H]4Oc5cc(O)cc(O)c5C(=O)[C@@H]4O)ccc3O[C@@H]2CO)ccc1O"
Reply | 0.996

Ask | Write down normalized growth measured for item "O=[N+]([O-])c1cccc2cn[nH]c12"
Reply | 0.996

Ask | Given CCCCS(=N)(=O)CCC(N)C(=O)O (stereo not drawn) , respond with its normalized growth.
Reply | 0.973

Ask | Given the compound CC(=O)OCC(=O)[C@@]1(O)[C@H](OC(C)=O)CC2C3CCC4=CC(=O)C=C[C@]4(C)[C@@]3(F)[C@@H](O)C[C@@]21C (stereo partly drawn) , write its reported normalized growth.
Reply | 0.98
